Kindly supply the reported IC50 values for the records listed here.
System: 935938-334-R-J1-PDC complex spheroid viability;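 note: spheroids exposed to drugs for seven days before viability read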
Assay: Anticancer human tumor 935938-334-R-J1-PDC patient-derived small intestine adenocarcinoma cell line growth inhibition [POLQ]
Settings: curve of first compound; second compound 0.316 µM

INSERT INTO assay_data (compound, result) VALUES
  ('O=C(Nc1ccc(O)c(NS(=O)(=O)c2ccc(F)cc2)c1)c1ccc(-c2ccccc2)cc1 + Cc1cccc(N(C)C(=O)C2C(O)CCN2c2nc(C)cc(C(F)(F)F)c2C#N)c1', '> 10000 nM'),
  ('CCc1cc2c(N3CCc4c(cc(Cn5ccnc5)cc4-c4cn(C)nc4C(F)(F)F)C3=O)cc(C)nc2c(OC)n1 + COC1C(OC(N)=O)C(O)C(Oc2ccc3c(O)c(NC(=O)c4ccc(O)c(CC=C(C)C)c4)c(=O)oc3c2C)OC1(C)C', '> 10000 nM'),
  ('CC[C@@]1(O)C(=O)OCc2c1cc1n(c2=O)Cc2cc3c(CN(C)C)c(O)ccc3nc2-1 + Nc1ccc(C#CCN(C(=O)Cc2ncc(C(F)(F)F)cc2C(F)(F)F)c2ccc(F)cc2)nn1', '> 100 nM'),
  ('CC(=O)O[C@H]1C(=O)[C@@]2(C)[C@H]([C@H](OC(=O)c3ccccc3)[C@]3(O)C[C@H](OC(=O)[C@H](O)[C@@H](NC(=O)c4ccccc4)c4ccccc4)C(C)=C1C3(C)C)[C@]1(OC(C)=O)CO[C@@H]1C[C@@H]2O + Nc1ccc(C#CCN(C(=O)Cc2ncc(C(F)(F)F)cc2C(F)(F)F)c2ccc(F)cc2)nn1', '< 9.49 nM'),
  ('CC1COCCN1c1cc(C2(S(C)(=N)=O)CC2)nc(-c2ccnc3[nH]ccc23)n1 (centres undefined) + COC1C(OC(N)=O)C(O)C(Oc2ccc3c(O)c(NC(=O)c4ccc(O)c(CC=C(C)C)c4)c(=O)oc3c2C)OC1(C)C', '2220 nM');

Here are 6 compounds. What values of IC50 were reported for them?
1. O=C(c1cc(Cc2n[nH]c(=O)c3ccccc23)ccc1F)N1CCN(C(=O)C2CC2)CC1 + Nc1ccc(C#CCN(C(=O)Cc2ncc(C(F)(F)F)cc2C(F)(F)F)c2ccc(F)cc2)nn1
2. C#Cc1c(F)ccc2cc(O)cc(-c3ncc4c(N5CC6CCC(C5)N6)nc(OCC56CCCN5CC(F)C6)nc4c3F)c12 (centres undefined) + Nc1ccc(C#CCN(C(=O)Cc2ncc(C(F)(F)F)cc2C(F)(F)F)c2ccc(F)cc2)nn1
3. COc1cccc2c1C(=O)c1c(O)c3c(c(O)c1C2=O)CC(O)(C(=O)CO)CC3OC1CC(N)C(O)C(C)O1 (centres undefined) + COC1C(OC(N)=O)C(O)C(Oc2ccc3c(O)c(NC(=O)c4ccc(O)c(CC=C(C)C)c4)c(=O)oc3c2C)OC1(C)C
4. CCc1cc2c(N3CCc4c(cc(Cn5ccnc5)cc4-c4cn(C)nc4C(F)(F)F)C3=O)cc(C)nc2c(OC)n1 + Nc1ccc(C#CCN(C(=O)Cc2ncc(C(F)(F)F)cc2C(F)(F)F)c2ccc(F)cc2)nn1
5. CNCc1ccc(-c2[nH]c3cc(F)cc4c3c2CCNC4=O)cc1 + Cc1cccc(N(C)C(=O)C2C(O)CCN2c2nc(C)cc(C(F)(F)F)c2C#N)c1
6. COc1cc2cc(C(=O)CCC(=O)O)sc2cc1OC + Nc1ccc(C#CCN(C(=O)Cc2ncc(C(F)(F)F)cc2C(F)(F)F)c2ccc(F)cc2)nn1

1. > 10000 nM
2. 2920 nM
3. 190 nM
4. > 10000 nM
5. > 10000 nM
6. > 10000 nM
